Form field: EC50 of IFNγ release, mouse splenocytes (one value per entry).
Tested on: T1, Avi/HisMsIL18BPd (recombinant mouse IL-18BP with Avi and poly-His tags) (mouse, biotinylated with BirA on the Avi tag in some assays)
T1 chain: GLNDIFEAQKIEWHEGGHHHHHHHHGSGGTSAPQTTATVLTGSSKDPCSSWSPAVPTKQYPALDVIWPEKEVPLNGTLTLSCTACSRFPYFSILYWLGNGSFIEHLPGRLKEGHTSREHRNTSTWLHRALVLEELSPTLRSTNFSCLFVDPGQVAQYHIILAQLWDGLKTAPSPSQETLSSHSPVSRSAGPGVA
Assay name: cell-based or functional assay

Worked cases, answers included:
q: Tell me the measured EC50 of IFNγ release, mouse splenocytes of anti-IL-18BP antibody variant BP-04.05 (antibody, V domains shown) VH: QVQLVQSGAEVKKPGASVKVSCKASGYTFTDYDMHWVRQAPGQGLEWMGIISTYYGVVSYAQKKQGRVTMTRDKSTSTVYMELSSLRSEDTAVYYCARSGTYYYGTRESHAFDYWGQGTLVTVSS VL: DIQMTQSPSSVSASVGDRVTITCRASDNVYSNLAWYQQKPGKAPKLLIYGAISLADGVPSRFSGSGSGTDFTLTISSLQPEDFATYYCQHFWGNPYTFGQGTKLEIK , please.
a: 4.92 nM

q: Now consider anti-IL-18BP antibody variant BP-04.23 (antibody, V domains shown) VH: QVQLVQSGAEVKKPGASVKVSCKASGYTFTDYDMHWVRQAPGQGLEWMGIYSTYYGDVSYAQKFQGRVTMTRDKSTSTVYMELSSLRSEDTAVYYCARSGTYYYGTRESHAFDYWGQGTLVTVSS VL: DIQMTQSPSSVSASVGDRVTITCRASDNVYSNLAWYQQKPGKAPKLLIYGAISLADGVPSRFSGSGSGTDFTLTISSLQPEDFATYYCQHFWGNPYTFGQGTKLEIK .
a: 3.5 nM

q: // repeat for anti-IL-18BP antibody variant BP-04.19 (antibody, V domains shown) VH: QVQLVQSGAEVKKPGASVKVSCKASGYTFTDYDMHWVRQAPGQGLEWMGIISTYYGVVSYAQKFQGRVTMTRDKSTSTVYMELSSLRSEDTAVYYCARSGTYYYGTRESHAFDYWGQGTLVTVSS VL: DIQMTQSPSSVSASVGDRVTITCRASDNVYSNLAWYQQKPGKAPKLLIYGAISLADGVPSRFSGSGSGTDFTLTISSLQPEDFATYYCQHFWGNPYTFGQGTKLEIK and report
a: 21.6 nM

As a next step, examine the binder that follows.
q: Please give the measured EC50 of IFNγ release, mouse splenocytes for this binder: anti-IL-18BP antibody variant BP-04.14 (antibody, V domains shown) VH: QVQLVQSGAEVKKPGASVKVSCKASGYTFTDYDMHWVRQAPGQGLEWMGIISTYYGDVSYAQKFQGRVTMTRDKSTSTVYMELSSLRSEDTAVYYCARSGTYNYGTRESHAFDYWGQGTLVTVSS VL: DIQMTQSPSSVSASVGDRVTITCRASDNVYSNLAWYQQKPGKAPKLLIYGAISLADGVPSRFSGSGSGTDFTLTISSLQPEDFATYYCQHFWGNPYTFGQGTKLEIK
a: 21.2 nM
